Sequence of the target: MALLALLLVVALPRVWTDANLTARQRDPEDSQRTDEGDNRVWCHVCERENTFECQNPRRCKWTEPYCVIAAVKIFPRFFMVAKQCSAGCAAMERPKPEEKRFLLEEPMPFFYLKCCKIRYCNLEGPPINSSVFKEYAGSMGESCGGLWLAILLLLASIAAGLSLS

| compoundSmiles | unitTag | Kd |
| --- | --- | --- |
| CCS(=O)(=O)Nc1ccc(Nc2c3ccccc3nc3cc(C(=O)NCCOCCOCCOCCOCCOCCOCCOCCNC(=O)CCCC[C@@H]4SC[C@@H]5NC(=O)N[C@@H]54)ccc23)c(OC)c1 | nM | 300 |
| CCS(=O)(=O)Nc1ccc(Nc2c3ccccc3nc3ccccc23)c(OC)c1 | nM | 4700 |
